Reported values of activation for individual entries
assay: potentiators of TNFa-induced VCAM1 expression, primary screen, imaging, HUVEC, TNFa stimulus, immunofluorescence (AID 808); conditions: HUVEC TNFa-stimulated VCAM-1 immunofluorescence, high-content imaging; at 2 µM; active compounds read high; scaled per plate to unstimulated/TNFa-only wells;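 further: signal is the number of cytoplasmic VCAM-1 stained grains per positive cell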
About 180 (0.19%) of roughly 93,000 compounds were called active. Only a selection was taken, and actives are over-represented in it overall.
assay.metric: activation (%)

compound | assay.metric | reported.value
COc1ccc(C(=O)OCC(=O)NCC2CCCCC2)cc1S(=O)(=O)N1CCCc2ccccc21 | activation | -5.3
NNC(=O)C1CCCn2c1nc1sc3c(c1c2=O)CCCC3 (stereo not drawn) | activation | -4.7
C=CCn1c(COc2ccccc2F)nnc1SCC(=O)N1CC(=O)Nc2ccccc21 | activation | -4.4
Cc1ccc(S(=O)(=O)NC(=O)N2CCCC(C)(C)C2)cc1 | activation | 4.1
CC(=O)Nn1cc2c(=O)n(C)c(=O)n(C)c2c1 | activation | -8.2
Cc1cc(Nc2ccccc2)n(CCC#N)n1 | activation | -2.1
CCOC(=O)c1c(N=CN(C)C)c(C#N)c2n1CCCC2 | activation | -8.6
Cc1nc2nc[nH]n2c(=O)c1NC(=O)c1cccc(OCC(C)C)c1 | activation | -5.4
Cc1cccc(C)c1OC(=O)CSc1nnc(-c2ccccc2)o1 | activation | 3.9
O=C(CSCc1ccccc1Cl)NNC(=O)c1ccccc1 | activation | -5.4
Cc1ccc(OCC(=O)Nc2cccc3c2CCCC3)cc1C | activation | -1.7
COc1ccccc1NC1=NC(c2ccc(Cl)cc2)N=C(N)N1 (stereo not drawn) | activation | -12.5
Cc1cccc2cc(CN(Cc3ccc4c(c3)OCO4)Cc3nnnn3C3CCCC3)c(=O)[nH]c12 | activation | 37.5
CCC(c1nnnn1Cc1ccco1)N(CCc1ccccc1)Cc1cc2cccc(C)c2[nH]c1=O (stereo not drawn) | activation | -0.4
Cc1nnc(SCC(=O)NC2CCCC2)s1 | activation | -13.9
CCC(CC)c1nnc(NS(=O)(=O)Cc2ccccc2)s1 | activation | 11.2
COc1ccccc1NC(=O)CSc1nnc(Cn2nnc(-c3ccccc3)n2)n1-c1ccccc1 | activation | 11.3
CCCOc1cc(C)c(S(=O)(=O)n2nnc3ccccc32)cc1C | activation | 45.5
O=[N+]([O-])c1ccccc1OCCCCN1CCCCC1 | activation | -6.6
COc1ccc(-n2nnnc2SCC(=O)c2ccc(OC)c(OC)c2)cc1 | activation | -6.6
COc1ccc(-c2nnc(SCC(=O)NC3CCCCC3)o2)cc1OC | activation | -87.2
Cc1n[nH]c(C)c1S(=O)(=O)N1CCCC(C(=O)NCC2COc3ccccc3O2)C1 (stereo not drawn) | activation | -3.9
Cc1cccc(OCCCC(=O)Nc2ccc(S(=O)(=O)N3CCCC3)cc2)c1 | activation | -20.4

###

assay: potentiators of TNFa-induced VCAM1 expression, primary screen, imaging, HUVEC, TNFa stimulus, immunofluorescence (AID 808); conditions: HUVEC TNFa-stimulated VCAM-1 immunofluorescence, high-content imaging; at 2 µM; scaled per plate to unstimulated/TNFa-only wells;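 further: signal is the number of cytoplasmic VCAM-1 stained grains per positive cell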
Screen size: about 93,000 compounds; about 180 (0.19%) were called active.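 Rule for the calls: active = activation above the screen mean plus 3 SD, with well images confirming the hit on visual review (cut at about 28% in these data, passing the limit was not always enough); inconclusive = activation above that limit but images do not confirm it; inactive = activation not above that limit.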 Many of the other results were omitted from the sample, so actives are more common in it than they were.
Outcomes: active, inactive

molecule | assigned.class
CCCCN=C1N/C(=C\c2ccco2)C(=O)N1c1ccccc1 | inactive
Cc1cccc(N=C2NC(=O)CS2)c1C | inactive
CCOC(=O)N1CCN(C(c2cccnc2)c2ccc3cccnc3c2O)CC1 (stereo unspecified) | inactive
O=C1c2ccccc2C(=O)c2c1cccc2N1CCN(Cc2ccccc2)CC1 | inactive
Brc1ccc(-c2nnc(-c3ccccc3)o2)o1 | inactive
COC(=O)C1=C(C)N=C2SC(C)C(=O)N2C1/C=C/c1ccccc1 (stereo unspecified) | inactive
COC(=O)c1c(-c2cccs2)csc1NC(=O)CSc1ncnc2sc(C)c(C)c12 | inactive
Cc1ccc(-n2nc3ccc(NC(=O)/C=C/c4ccco4)cc3n2)cc1C | inactive
COc1ccc(/C=N/Nc2nc3ccccc3o2)cc1OC | active
COc1cc(/C=N\NC(=O)C2C(=O)NCC2c2ccccc2)cc(OC)c1O (stereo unspecified) | inactive
COc1cccc(OCc2cc(/C=N/NC(=O)c3nc(Cl)c(Cl)c(N)c3Cl)ccc2OC)c1 | inactive

###

assay: potentiators of TNFa-induced VCAM1 expression, primary screen, imaging, HUVEC, TNFa stimulus, immunofluorescence (AID 808); conditions: HUVEC TNFa-stimulated VCAM-1 immunofluorescence, high-content imaging; at 2 µM; active compounds read high; scaled per plate to unstimulated/TNFa-only wells;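 further: signal is the number of cytoplasmic VCAM-1 stained grains per positive cell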
Out of some 93,000 compounds screened, about 180 (0.19%) were called active. The entries come from a sample that favours actives as a whole.
assay.metric: activation (%)

structure.smiles.string | assay.metric | result.unit | reported.value
C=CCOc1ccc(/C=N/n2cncn2)cc1OC | activation | % | 4.4
COc1ccc(-c2cc(C(F)(F)F)nc(SCCC(=O)NCc3ccco3)n2)cc1 | activation | % | -32.5
CCn1c(NC(=O)c2ccccc2)c(-c2cccs2)c(=O)c2ccccc21 | activation | % | -8.7

###

Reported values of activation for individual entries
assay: potentiators of TNFa-induced VCAM1 expression, primary screen, imaging, HUVEC, TNFa stimulus, immunofluorescence (AID 808); conditions: HUVEC TNFa-stimulated VCAM-1 immunofluorescence, high-content imaging; at 2 µM; active compounds read high; scaled per plate to unstimulated/TNFa-only wells;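 further: signal is the number of cytoplasmic VCAM-1 stained grains per positive cell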
Screen size: about 93,000 compounds; about 180 (0.19%) were called active. Only a selection was taken, and actives are over-represented in it overall.

compound | activation [%]
Cc1ccc(N2C(=O)c3ccccc3C2(O)c2ncc[nH]2)cc1 (configuration not stated) | -0.7
O=C(OCC(=O)N1CCCC1)c1ccco1 | -4.1
COc1ccc(Nc2cc(=O)oc3ccccc23)cc1 | -88.9
CCC(C)(C)n1nnnc1C(c1cccs1)N1CCN(c2nc3ccccc3s2)CC1 (configuration not stated) | 0.6
CC(=O)c1cccc(S(=O)(=O)N2CCC(n3nnc4cc(F)ccc43)CC2)c1 | -54.7
NC(=O)CCCC1=NS(=O)(=O)c2ccccc2N1 | 2.1
Cn1c2ccccc2c2c(C(=O)N3CCN(c4ccc(F)cc4)CC3)cn(C3CCCC3)c(=O)c21 | -11.3
CCCNS(=O)(=O)c1ccc2c(c1)CCCN2C(C)=O | -100
CC(=O)c1ccc(OCCN2CCOCC2)cc1 | -16.7
CN(C)CCCn1c(N)c(C#N)c2nc(C#N)c(C#N)nc21 | -7.9
O=C(O)c1ccc(COc2c(F)c(F)cc(F)c2F)o1 | 1.5
O=C(Nc1nccs1)C1CCN(S(=O)(=O)c2ccc(Cl)c(C(F)(F)F)c2)CC1 | -9.5
Cc1cccc(C(=O)NCCCN2CCCC2=O)c1 | 26
COC(=O)c1ccc(NC(=O)Nc2ccc(C)cc2)cc1 | -1.4
C=C(C)CNC(=S)/N=c1\scc(C)n1CC | -4.4
Cc1ccc(CCNC(=O)C2CCN(S(=O)(=O)N3CCCC3)CC2)cc1 | -9.5
Cc1ccc(S(=O)(=O)N(CC(=O)NCCSC2CCCCC2)c2ccccc2F)cc1 | 8.5
COc1ccc2c(c1OC)C(=O)N(c1ncn[nH]1)C2 | -7.1
CCC(=O)Nc1ccc(S(=O)(=O)NCC2CCCO2)cc1 (configuration not stated) | -5.4
CCOC(=O)CCc1c(C)c(C#N)c2[nH]c3ccccc3n2c1=O | 0.5
CC(=O)c1cc(NC(=O)c2ccccc2)c(=O)oc1/C=C/N(C)C | 16.1
O=C(Nc1cc2c3c(c1)C1CCCC1CN3CC1CCCC21)c1ccc([N+](=O)[O-])cc1 (configuration not stated) | -2.9
Cc1c(Nc2cc(N3CCCC(C)C3)c3nonc3c2[N+](=O)[O-])c(=O)n(-c2ccccc2)n1C (configuration not stated) | -5.2
CCOC(=O)NCc1ccc2c(c1)OCO2 | -8.2
CCCN1C(=O)C(NC(C)=O)c2cc(OC)ccc21 (configuration not stated) | -5.9
O=C(COc1ccc2ccccc2c1)N1CCN(C(=O)c2cccs2)CC1 | -21.6
CC(C)NC(=O)c1ccccc1S(=O)c1ccccc1C#N (configuration not stated) | -0.6
CCOc1ccc(N=C2NC(=O)S/C2=C\c2ccc(O)cc2)cc1 | 29.2
CCOc1ccccc1Nc1nnc(SCc2ccc(C(=O)OC)o2)s1 | -4.9
CCCc1cc(=O)[nH]c(SCc2ccc(C#N)cc2)n1 | -3
CC(C)N1C(=O)C2C(C(=O)NC3CCCCC3)C3C=CC2(O3)C1C(=O)NC1CCCC1 (configuration not stated) | -10.8
Nc1cc(=O)nc(SCc2ccccc2)n1Cc1ccco1 | -95
NC(=O)COc1ccc2c3c(c(=O)oc2c1)CCCCC3 | -35
O=C(Nc1ccncc1)c1c(F)cccc1F | 76.2
CC(=O)Nc1ccc(S(=O)(=O)N2CCN(C(=O)c3ccccc3F)CC2)cc1 | -7.6
CC(C)C(=O)N1CCN(c2nc(-c3ccccc3)c3c(c2C#N)CC(C)(C)OC3)CC1 | -36.7
Nc1nonc1-c1noc(-c2ccc(Br)o2)n1 | 9.6
Cn1cnc([N+](=O)[O-])c1Nc1ccccc1O | 17.4
CCOC(=O)CCP(=O)(O)C(O)(c1ccccc1)c1ccccc1 | -1.8
O=C(Nc1ccc(F)cc1)c1cccnc1N1CCOCC1 | -3.5
O=S(=O)(c1cccs1)N1CCN(Cc2ccccc2)CC1 | 6.9
Cc1ccc(S(=O)(=O)NCCSC(C)(C)C)cc1 | -9
CCOC(=O)c1ccc(NC(=O)CSc2ncccn2)cc1 | 21.4
CC(N)C12CC3CC(CC(O)(C3)C1)C2 (configuration not stated) | 1
C=CCn1c(COc2cccc3cccnc23)nnc1SCC(=O)OC | -28.4
C/C(=N\NC(=O)c1ccc(C)cc1)C1C(=O)c2ccccc2C1=O | -6.4
C/C(=C\C(=O)c1ccccc1)Nc1cccc(O)c1 | 2.2

Value source: PubChem BioAssay AID808
